tested on: HepG2; assay: Cytotoxicity against human HepG2 cells after 72 hrs by MTT assay; format: functional, cell-based; details: HepG2, 72 h
OBSERVATION TYPE: pIC50
Quick note: pIC50 means taking -log10 of the concentration in moles per liter.

The following compounds have reported results that may help.
- COMPOUND STRING: "CN(CCO)/[N+]([O-])=N\\Oc1cc(NCCC(=O)O[C@H]2CC[C@]3(C)[C@H]4CC=C5[C@@H]6CC(C)(C)CC[C@]6(C(=O)O[C@@H]6O[C@H](CO)[C@H](O)[C@H](O)[C@H]6O)CC[C@@]5(C)[C@]4(C)CC[C@H]3C2(C)C)c([N+](=O)[O-])cc1[N+](=O)[O-]"
  VALUE MEASURED: 5.69
- COMPOUND STRING: "CCOC(=O)N1CCN(/[N+]([O-])=N/Oc2ccc([N+](=O)[O-])cc2[N+](=O)[O-])CC1"
  VALUE MEASURED: 5.28
- COMPOUND STRING: "CN(CCO)/[N+]([O-])=N\\Oc1cc(N2CCN(CC(=O)O[C@H]3CC[C@]4(C)[C@H]5CC=C6[C@@H]7CC(C)(C)CC[C@]7(C(=O)O[C@@H]7O[C@H](CO)[C@H](O)[C@H](O)[C@H]7O)CC[C@@]6(C)[C@]5(C)CC[C@H]4C3(C)C)CC2)c([N+](=O)[O-])cc1[N+](=O)[O-]"
  VALUE MEASURED: 5.85

Pending compound:
IN: Entry `CN(CCO)/[N+]([O-])=N/Oc1cc(NCC(=O)O[C@H]2CC[C@]3(C)[C@H]4CC=C5[C@@H]6CC(C)(C)CC[C@]6(C(=O)O[C@@H]6O[C@H](CO)[C@H](O)[C@H](O)[C@H]6O)CC[C@@]5(C)[C@]4(C)CC[C@H]3C2(C)C)c([N+](=O)[O-])cc1[N+](=O)[O-]` : reported pIC50 = ?
OUT: 5.44

---

IC50 reference
test system: HepG2; assay: Cytotoxicity against human HepG2 cells after 48 hrs by MTT assay; format: functional, cell-based; settings: HepG2, 48 h

The following molecules have reported results that may help.
- COMPOUND STRING: "CCOC(=O)N1CCN(/[N+]([O-])=N/Oc2ccc([N+](=O)[O-])cc2[N+](=O)[O-])CC1"
  TESTED SYSTEM: "HepG2"
  IC50: "7.12 µM"
- COMPOUND STRING: "CN(CCO)/[N+]([O-])=N/Oc1cc(NCC(=O)O[C@H]2CC[C@]3(C)[C@H]4CC=C5[C@@H]6CC(C)(C)CC[C@]6(C(=O)O[C@@H]6O[C@H](CO)[C@H](O)[C@H](O)[C@H]6O)CC[C@@]5(C)[C@]4(C)CC[C@H]3C2(C)C)c([N+](=O)[O-])cc1[N+](=O)[O-]"
  TESTED SYSTEM: "HepG2"
  IC50: "6.65 µM"
- COMPOUND STRING: "CN(CCO)/[N+]([O-])=N\\Oc1cc(NCCC(=O)O[C@H]2CC[C@]3(C)[C@H]4CC=C5[C@@H]6CC(C)(C)CC[C@]6(C(=O)O[C@@H]6O[C@H](CO)[C@H](O)[C@H](O)[C@H]6O)CC[C@@]5(C)[C@]4(C)CC[C@H]3C2(C)C)c([N+](=O)[O-])cc1[N+](=O)[O-]"
  TESTED SYSTEM: "HepG2"
  IC50: "3.56 µM"

IN: Entry `C[C@H](Nc1cc(O/N=[N+](\[O-])N(C)CCO)c([N+](=O)[O-])cc1[N+](=O)[O-])C(=O)O[C@H]1CC[C@]2(C)[C@H]3CC=C4[C@@H]5CC(C)(C)CC[C@]5(C(=O)O[C@@H]5O[C@H](CO)[C@H](O)[C@H](O)[C@H]5O)CC[C@@]4(C)[C@]3(C)CC[C@H]2C1(C)C` : reported IC50 = ?
OUT: 7.89 µM

IN: Next molecule: `CN(CCO)/[N+]([O-])=N\Oc1cc(N2CCN(CC(=O)O[C@H]3CC[C@]4(C)[C@H]5CC=C6[C@@H]7CC(C)(C)CC[C@]7(C(=O)O[C@@H]7O[C@H](CO)[C@H](O)[C@H](O)[C@H]7O)CC[C@@]6(C)[C@]5(C)CC[C@H]4C3(C)C)CC2)c([N+](=O)[O-])cc1[N+](=O)[O-]`
OUT: 2.11 µM

---

test system: SMMC-7721; experiment: Cytotoxicity against human SMMC7721 cells after 72 hrs by MTT assay; format: functional, cell-based; conditions: SMMC-7721, 72 h
OBSERVATION TYPE: IC50 (µM)
Enter your answer as a number in µM; do not include the unit.

IN: # returns recorded IC50 (system: SMMC-7721) for `C[C@H](Nc1cc(O/N=[N+](\[O-])N(C)CCO)c([N+](=O)[O-])cc1[N+](=O)[O-])C(=O)O[C@H]1CC[C@]2(C)[C@H]3CC=C4[C@@H]5CC(C)(C)CC[C@]5(C(=O)O[C@@H]5O[C@H](CO)[C@H](O)[C@H](O)[C@H]5O)CC[C@@]4(C)[C@]3(C)CC[C@H]2C1(C)C`
OUT: 8.84

IN: Next compound: `CN(CCO)/[N+]([O-])=N\Oc1cc(N2CCN(CC(=O)O[C@H]3CC[C@]4(C)[C@H]5CC=C6[C@@H]7CC(C)(C)CC[C@]7(C(=O)O[C@@H]7O[C@H](CO)[C@H](O)[C@H](O)[C@H]7O)CC[C@@]6(C)[C@]5(C)CC[C@H]4C3(C)C)CC2)c([N+](=O)[O-])cc1[N+](=O)[O-]`
OUT: 2.3

IN: Next compound: `CN(CCO)/[N+]([O-])=N/Oc1cc(NCC(=O)O[C@H]2CC[C@]3(C)[C@H]4CC=C5[C@@H]6CC(C)(C)CC[C@]6(C(=O)O[C@@H]6O[C@H](CO)[C@H](O)[C@H](O)[C@H]6O)CC[C@@]5(C)[C@]4(C)CC[C@H]3C2(C)C)c([N+](=O)[O-])cc1[N+](=O)[O-]`
OUT: 7.44

IN: Next compound: `CCOC(=O)N1CCN(/[N+]([O-])=N/Oc2ccc([N+](=O)[O-])cc2[N+](=O)[O-])CC1`
OUT: 7.31

IN: Next compound: `CN(CCO)/[N+]([O-])=N\Oc1cc(NCCC(=O)O[C@H]2CC[C@]3(C)[C@H]4CC=C5[C@@H]6CC(C)(C)CC[C@]6(C(=O)O[C@@H]6O[C@H](CO)[C@H](O)[C@H](O)[C@H]6O)CC[C@@]5(C)[C@]4(C)CC[C@H]3C2(C)C)c([N+](=O)[O-])cc1[N+](=O)[O-]`
OUT: 3.97

---

system: GSTalpha; experiment: Activity at GSTalpha (unknown origin) by Michaelis-Menten equation; assay type: ADME; settings: human, GSTalpha enzyme
OBSERVATION TYPE: Km (µM)
Enter your answer as a number in µM; do not include the unit.

IN: # returns recorded Km (system: GSTalpha) for `CN(CCO)/[N+]([O-])=N\Oc1cc(N2CCN(CC(=O)O[C@H]3CC[C@]4(C)[C@H]5CC=C6[C@@H]7CC(C)(C)CC[C@]7(C(=O)O[C@@H]7O[C@H](CO)[C@H](O)[C@H](O)[C@H]7O)CC[C@@]6(C)[C@]5(C)CC[C@H]4C3(C)C)CC2)c([N+](=O)[O-])cc1[N+](=O)[O-]`
OUT: 264

---

test: Acute toxicity in ip dosed mouse after 14 days; type: organism-based; conditions: in vivo
OBSERVATION TYPE: LD50 at 336 h (µmol/kg)
Enter your answer as a number in µmol/kg; do not include the unit.

IN: Entry `CN(CCO)/[N+]([O-])=N\Oc1cc(N2CCN(CC(=O)O[C@H]3CC[C@]4(C)[C@H]5CC=C6[C@@H]7CC(C)(C)CC[C@]7(C(=O)O[C@@H]7O[C@H](CO)[C@H](O)[C@H](O)[C@H]7O)CC[C@@]6(C)[C@]5(C)CC[C@H]4C3(C)C)CC2)c([N+](=O)[O-])cc1[N+](=O)[O-]` : reported LD50 at 336 h = ?
OUT: 250

---

experiment: Chemical stability in PBS buffer at pH 7.4 in presence of 5 mM GSH at 37 degC after 100 mins by HPLC analysis; assay type: physicochemical; conditions: PBS buffer with 5 mM GSH, read-out: Stability
OBSERVATION TYPE: remaining at 100 min (%)
Enter your answer as a number in %; do not include the unit.

IN: Entry `CN(CCO)/[N+]([O-])=N\Oc1cc(N2CCN(CC(=O)O[C@H]3CC[C@]4(C)[C@H]5CC=C6[C@@H]7CC(C)(C)CC[C@]7(C(=O)O[C@@H]7O[C@H](CO)[C@H](O)[C@H](O)[C@H]7O)CC[C@@]6(C)[C@]5(C)CC[C@H]4C3(C)C)CC2)c([N+](=O)[O-])cc1[N+](=O)[O-]` : reported remaining at 100 min = ?
OUT: 78
